Origin of measurements: PubChem BioAssay (NCI)

# System: OVCAR-3 ovarian
Endpoint Label: GI50

Answered cases to consult:
ClC(Cl)c1nc(-c2cccnc2)n2nc(-c3ccccc3)cc2n1    1610 nM
COc1ccc(-c2cc(/C=C3\C(=O)Nc4ccc(Cl)cc43)[nH]n2)cc1    3050 nM
CCOC(=O)C(=Cc1ccccc1[N+](=O)[O-])C(=O)OCC    2650 nM
CC1=C[C@H]2c3c(c(O)c(O)c4oc5ccccc5c(=O)c34)[C@H](c3cc(O)c(O)c4oc5ccccc5c(=O)c34)[C@H]2C(C)(C)C1    426 nM
O=C(c1ccc2ncc(-c3nc(NC4CC4)ncc3F)n2c1)N1CCOCC1    2210 nM

For each entry beneath this line, provide reported GI50.
1. Cc1sc(C)c(Cc2c(C)sc(C)c2CCl)c1CCl
2. OCC1OC(n2ccc3c(NO)ncnc32)C(O)C1O (stereo not drawn)
3. COC(=O)c1c2c(c(C)[n+]([O-])c1C)C(=O)C=C(NCc1ccc(F)c(F)c1)C2=O

Completion:
1. > 100000 nM
2. 249 nM
3. 256 nM

* * *

# Tested on: SK-MEL-28 melanoma
# Assay Info: NCI tumour cell line growth inhibition, 48 h
Endpoint Label: TGI

Answered cases to consult:
Cc1sc(C)c(Cc2c(C)sc(C)c2CCl)c1CCl    > 100 µM
C(CCC[Te][Te]CCCCCCOC1CCCCO1)CCOC1CCCCO1 (configuration not stated)    27.4 µM
CCOc1cc2c(NCCCN(CCO)CCO)ncnc2c(OCC)c1OCC    > 100 µM

For each entry beneath this line, provide reported TGI.
1. c1ccc(C2=Nc3nc4ccccc4n3C(c3ccccc3)C2)cc1 (configuration not stated)
2. N=c1nnc(=O)c2c(s1)-n1ncc(C(=O)O)c1NN2
3. CN1C(=S)C(c2ccccc2)Sc2ccccc21 (configuration not stated)

Completion:
["> 100 µM", "> 100 µM", "> 100 µM"]

For each entry beneath this line, provide reported TGI.
1. CN(C)N1C(=O)c2ccccc2NC1c1ccccc1 (configuration not stated)
2. Cc1nc2c(n1C(C)(C)C)C(=O)c1ccccc1C2=O

Completion:
1: > 100 µM; 2: > 100 µM

For each entry beneath this line, provide reported TGI.
1. CC(C)SC(C)(NC(=O)C1C(C)(C)CCC1(C)C)C(=O)O (configuration not stated)
2. Nc1nnc2cc(Cl)ccc2n1
3. COC(=O)C1=C(C)NC2(O)C=CC(=O)C3C(=O)N(c4ccccc4)C(=O)C132 (configuration not stated)
4. CCOC(=O)C(Cc1c[nH]c2ccc(N(CCCl)CCCl)cc12)(NC(C)=O)C(=O)OCC

Completion:
1. > 100 µM
2. > 100 µM
3. 78.7 µM
4. 238 µM

* * *

As an illustration, consider measured GI50 for molecules on SF-268 CNS.

CCOC(=O)C(Cc1c[nH]c2ccc(N(CCCl)CCCl)cc12)(NC(C)=O)C(=O)OCC    5.21 µM
CCNC(=O)C#CC(=O)NCC    > 10 µM
O=C(NCCCNc1cc(-c2cn(-c3ccccc3)nc2-c2cccc(O)c2)ccn1)c1ccccc1    3.74 µM

For each entry beneath this line, provide reported GI50.
1. COc1ccc2c(Nc3ccc(NS(C)(=O)=O)cc3)c3ccccc3nc2c1
2. COc1ccc(/C=C/c2nc(NCCCN(C)C)c3ccccc3n2)cc1
3. Nc1nnc2cc(Cl)ccc2n1

Completion:
["0.469 µM", "1.86 µM", "> 100 µM"]

* * *

Hi there, I'd appreciate the recorded TGI for every entry that follows.
# Test system: NCI-H23 lung
# Assay Info: NCI tumour cell line growth inhibition, 48 h

Answered cases to consult:
N#Cc1c(-c2ccccc2)cc(-c2ccc(Nc3nc(Nc4ccc(Cl)cc4)nc(Nc4ccc(Cl)cc4)n3)cc2)nc1N    61.4 µM
CCOC(=O)/C(=C\c1ccc(N(C)C)cc1)S(=O)(=O)C(F)(F)C(F)(F)C(F)(F)C(F)(F)F    > 100 µM

For each entry beneath this line, provide reported TGI.
1. O=C(Nc1ccc(Cl)cc1)c1ccc(NC2=C(Cl)C(=O)N(Cc3ccccc3)C2=O)cc1
2. COc1ccc(C(N)=O)cc1N=NN(C)C
3. Cc1ccnc2[nH]c(-c3cccc(Cl)c3)cc(=O)c12
4. CC(C(=O)ON1C(=O)CCC1=O)c1ccc(C(=O)c2ccccc2)s1 (configuration not stated)
5. Cc1c(C(=O)NCCO)[n+](=O)c2cc(Cl)ccc2n1[O-]

Completion:
1. 28.6 µM
2. > 100 µM
3. > 100 µM
4. > 100 µM
5. > 100 µM

* * *

# System: NCI-H226 lung
Endpoint Label: GI50

Answered cases to consult:
CCNC(=O)C#CC(=O)NCC    > 100 µM
COc1cc(/C=C\[N+](=O)[O-])ccc1OCc1ccccc1    2.26 µM

For each entry beneath this line, provide reported GI50.
1. CC(C)c1ccc(C(=O)Nc2sc3c(c2C#N)CCC(=O)C3)cc1
2. COCCOC(=O)NC(=O)Nc1ccc(/C(=N/O)c2ccc(Cl)cc2)cc1

Completion:
["3.88 µM", "1.14 µM"]

For each entry beneath this line, provide reported GI50.
1. CN(C)CCCN1c2nc3ccccc3cc2Sc2cc3ccccc3nc21
2. CCCCCCCCCCN(CCCCCCCCCC)CC(=O)c1ccc2cc(Br)c3ccccc3c2c1
3. CCOC(=O)C(=Cc1ccccc1[N+](=O)[O-])C(=O)OCC
4. O=C(Nc1ccc(Cl)cc1)c1ccc(NC2=C(Cl)C(=O)N(Cc3ccccc3)C2=O)cc1
5. COc1cc2c3c(c1)c1cc(OC)c(OC)cc1c[n+]3CC2
6. COc1cc(/C=C2\CC3C4CC=C5C[C@@H](OC(C)=O)CC[C@]5(C)C4CC[C@]3(C)C2=O)ccc1OCCCn1ccnc1 (stereo not given in full)

Completion:
1. 1.46 µM
2. 1.77 µM
3. 3.26 µM
4. 11.2 µM
5. 4.13 µM
6. 8.26 µM

* * *

Hi there, I'd appreciate the recorded TGI for every entry that follows.
# System: MCF7 breast
# Assay Info: NCI tumour cell line growth inhibition, 48 h
One number for each entry, in µM.

N#Cc1cnc2cc(OC[C@@H](O)CO)c(NC(=O)CC3CSSC3)cc2c1Nc1ccc(OCc2cccc(F)c2)c(Cl)c1    0.182
COc1ccc(/C=C/c2nc(NCCCN(C)C)c3ccccc3n2)cc1    3.23
[Se]=P(c1ccccc1)(c1ccccc1)c1ccc(C(c2ccccc2)=P(c2ccccc2)(c2ccccc2)c2ccccc2)cc1    2.93

Entry CC1=C[C@H]2c3c(c(O)c(O)c4oc5ccccc5c(=O)c34)[C@H](c3cc(O)c(O)c4oc5ccccc5c(=O)c34)[C@H]2C(C)(C)C1 — recorded TGI = 11.1

* * *

# Test system: KM20L2 colon
# Assay Info: NCI tumour cell line growth inhibition, 48 h
Hi there, I'd appreciate the recorded TGI for every entry that follows.

Answered cases to consult:
CCOc1ccc(/C=C(\Cl)c2ccc(OC)c(OC)c2)cc1    40.1 µM
Nc1nc2c(c(=O)[nH]1)N(C=O)C(CNc1ccc(C(=O)N[C@@H](CCC(=O)O)C(=O)O)cc1)CN2 (stereo not given in full)    > 125 µM
CCNC(=O)C#CC(=O)NCC    > 100 µM
Cc1c(C(=O)NCCO)[n+](=O)c2cc(Cl)ccc2n1[O-]    > 100 µM
C=C1C(=O)OC2(C)C3CCC(C3)C12 (stereo not given)    > 100 µM
CCCCCCCC(=O)OC(CBr)COC(=O)C(C)(C)C (stereo not given)    > 100 µM
CCC(=O)C(C)C1=Nc2nnc(CCCCCCCc3nnc4n3C(=O)C(C(C)C(=O)CC)=N4)n2C1=O (stereo not given)    > 100 µM
COC(=O)c1sc(C(=O)OC)c2c1CSC2    > 100 µM

For each entry beneath this line, provide reported TGI.
1. C(CCC[Te][Te]CCCCCCOC1CCCCO1)CCOC1CCCCO1 (stereo not given)
2. COc1ccc2c(c1OC)C1=C(C2=O)c2cc3c(cc2CCN1)OCO3
3. CC1(C)OC(=O)C=C([O-])O1.CC1(C)OC(=O)C=C([O-])O1.O=S(=O)([O-])c1ccc([O-])c2ncccc12.O=S(=O)([O-])c1ccc([O-])c2ncccc12.[Ti+4]
4. COc1ccccc1-c1cc(=O)c2ccccc2[nH]1
5. O=c1cc2ccccc2nn1Cc1ccccc1Cl
6. C/C(=N\NS(=O)(=O)c1ccccc1)c1ccccc1

Completion:
1: 28.7 µM; 2: 41 µM; 3: > 100 µM; 4: > 100 µM; 5: > 100 µM; 6: > 100 µM

// molecule N=c1nnc(=O)c2c(s1)-n1ncc(C(=O)O)c1NN2 , assay KM20L2 colon, TGI value: > 100 µM
